Just for reference, the supplement of paper PMC12042874 is where these values come from.

# TEST: amyloid nucleation score (Sup35N fusion, yeast selection) (log enrichment); library NNK3; higher = more nucleation; inactive = no reads after selection;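 also: zero at mode of non-aggregating sequences after 7 days selection at 30°C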
RECORDED_ENDPOINT: amyloid nucleation score

Answered examples (5):
TCSLFFSYPYIGRQHGCGRY    0.444
NISSVVLGGGLRVGARRI    inactive
HWSRFQYGLVFRNFIVQNLD    inactive
VNCTNLRKPLQLTQ    inactive
TSDIFTSRYILAIDPRMNWV    inactive

Please indicate amyloid nucleation score recorded for RLKLMRP
inactive

Quick one: give measured amyloid nucleation score for RCDCLRRNGSLHSQFNVSGG
1.02

###

# TEST: amyloid nucleation score (Sup35N fusion, yeast selection) (log enrichment); library NNK1; higher = more nucleation; inactive = no reads after selection
Short version: amyloid nucleation score at least 0.2 is 1 (yes), less is 0 (no).

VISGVCFSDIFLDVPTLWLW    1 (yes)
FWRGDRLVMSFEE    0 (no)
FVYNTSFLYSVCNNWAKRSP    1 (yes)
LFYCRALRYFASHLDASNMH    0 (no)
FFELSVYH    0 (no)
KAFATMLNRLEVGTLGRG    0 (no)

Now look at this entry.
Please tell me: is the substance PGFYGPLIGFMWRCSARERC at or over 0.2 in terms of amyloid nucleation score?
1 (yes)
